binders and their reported MFI
Biological target: mouse DLL3 on CHO-K1-mDLL3 cells (mouse) (UniProt O88516)
Sequence (O88516 other isoform, or with tags, fused parts or gaps limits assumed): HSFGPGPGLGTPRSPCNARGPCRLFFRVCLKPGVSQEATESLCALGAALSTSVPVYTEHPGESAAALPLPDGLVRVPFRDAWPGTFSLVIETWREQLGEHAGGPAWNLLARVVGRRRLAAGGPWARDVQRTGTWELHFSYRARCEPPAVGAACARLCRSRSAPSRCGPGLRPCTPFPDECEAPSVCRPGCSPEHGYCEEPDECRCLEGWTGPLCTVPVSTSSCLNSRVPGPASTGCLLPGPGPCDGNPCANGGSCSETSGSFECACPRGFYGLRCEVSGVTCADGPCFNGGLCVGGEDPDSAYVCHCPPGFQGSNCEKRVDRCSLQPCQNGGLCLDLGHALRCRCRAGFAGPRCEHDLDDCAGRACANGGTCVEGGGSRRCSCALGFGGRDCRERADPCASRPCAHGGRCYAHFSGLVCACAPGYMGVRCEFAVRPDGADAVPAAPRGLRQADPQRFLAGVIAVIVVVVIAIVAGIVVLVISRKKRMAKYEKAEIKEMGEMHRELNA
Test: FACS, CHO-K1-mDLL3 cells, 20 nM antibody

{"columns": ["binder", "MFI [MFI]"],
 "data": [
  ["Hab015VL5VH5a-hFc (scFv, part only; not given: scFv linker and human IgG1 Fc, V domains shown, not shown: another chain or arm of the molecule; a dimerising Fc or GST; small tags and cut ends) VL: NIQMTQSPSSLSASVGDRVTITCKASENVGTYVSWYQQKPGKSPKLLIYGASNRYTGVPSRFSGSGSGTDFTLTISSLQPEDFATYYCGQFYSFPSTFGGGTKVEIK VH: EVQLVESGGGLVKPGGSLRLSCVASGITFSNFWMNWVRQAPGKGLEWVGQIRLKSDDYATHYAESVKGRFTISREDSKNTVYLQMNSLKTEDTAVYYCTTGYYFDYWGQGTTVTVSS", 1440],
  ["Hab015VL4VH1b-hFc (scFv, part only; not given: VL-VH linker and human IgG1 Fc, V domains shown, not shown: another chain or arm of the molecule; a dimerising Fc or GST; small tags and cut ends) VL: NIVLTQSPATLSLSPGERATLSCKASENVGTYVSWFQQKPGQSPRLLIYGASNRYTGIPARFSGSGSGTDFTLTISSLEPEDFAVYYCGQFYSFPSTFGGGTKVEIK VH: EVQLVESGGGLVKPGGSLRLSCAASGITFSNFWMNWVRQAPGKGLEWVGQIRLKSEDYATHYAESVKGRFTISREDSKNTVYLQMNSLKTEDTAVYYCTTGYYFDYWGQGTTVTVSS", 1340],
  ["Hab009VL2aVH1-hFc (scFv, part only; not given: VL-VH linker and human IgG1 Fc, V domains shown, not shown: another chain or arm of the molecule; a dimerising Fc or GST; small tags and cut ends) VL: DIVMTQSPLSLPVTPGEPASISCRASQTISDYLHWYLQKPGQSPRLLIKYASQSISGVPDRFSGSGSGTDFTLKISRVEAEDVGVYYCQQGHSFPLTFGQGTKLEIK VH: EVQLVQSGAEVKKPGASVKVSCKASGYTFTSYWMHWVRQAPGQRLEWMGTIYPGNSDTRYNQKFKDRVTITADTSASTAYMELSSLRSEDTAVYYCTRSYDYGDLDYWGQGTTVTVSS", 398]
]}
